Assay: The drug is tested on the gut metagenome community of T-02 with ENA study accession number: PRJEB31790 for biotransformation under anaerobic condition. The drug concentrations were measured over 7 timepoints collected between 0 and 12 hours of incubation by liquid-chromatography-coupled mass spectrometry (LC–MS)
Assay type: ADME
Design: dose 5 uM, timepoint 0, 0.75, 1.5, 3, 6, 9, 12 hours
Conditions: 5 µM

Molecule | Bacterial Biotransformation
C[C@]12CCC(=O)C=C1CC[C@@H]1[C@@H]2C(=O)C[C@@]2(C)[C@H]1CC[C@]2(O)C(=O)CO | Compound metabolized
CCOc1nc2cccc(C(=O)O)c2n1Cc1ccc(-c2ccccc2-c2nnn[nH]2)cc1 | Compound NOT metabolized
CC(C)NCC(O)COc1ccc(CC(N)=O)cc1 (centres undefined) | Compound NOT metabolized
CN(Cc1cnc2nc(N)nc(N)c2n1)c1ccc(C(=O)N[C@@H](CCC(=O)O)C(=O)O)cc1 [METHOTREXATE] | Compound metabolized

###

Assay: The drug is tested on Lactobacillus ruminis strain: ATCC25644 for biotransformation under microaerobic condition. The drug concentrations were measured over 6 timepoints collected between 0 and 12 hours of incubation by liquid-chromatography-coupled mass spectrometry (LC–MS)
Assay type: ADME
Set-up: dose 5 uM, timepoint 0, 1.5, 3, 6, 9, 12 hours
Settings: ligilactobacillus ruminis, 5 µM
Test readout: Bacterial Biotransformation

Compound | Test readout | Reported measurement
C[C@]12C=CC(=O)C=C1CC[C@@H]1[C@@H]2[C@@H](O)C[C@@]2(C)[C@H]1CC[C@]2(O)C(=O)CO | Bacterial Biotransformation | Compound NOT metabolized
NS(=O)(=O)c1cc(C(=O)O)c(NCc2ccco2)cc1Cl [FUROSEMIDE] | Bacterial Biotransformation | Compound NOT metabolized
CN(Cc1cnc2nc(N)nc(N)c2n1)c1ccc(C(=O)N[C@@H](CCC(=O)O)C(=O)O)cc1 [METHOTREXATE] | Bacterial Biotransformation | Compound NOT metabolized
C[C@@H](NCCCc1cccc(C(F)(F)F)c1)c1cccc2ccccc12 | Bacterial Biotransformation | Compound NOT metabolized

###

Assay: The drug is tested on Bacteroides fragilis strain: DSM2151 for biotransformation under anaerobic condition. The drug concentrations were measured over 6 timepoints collected between 0 and 12 hours of incubation by liquid-chromatography-coupled mass spectrometry (LC–MS)
Format: ADME
Parameters: dose 5 uM, timepoint 0, 1.5, 3, 6, 9, 12 hours
Details: 5 µM
Test readout: Bacterial Biotransformation

Molecule | Bacterial Biotransformation
CNC(=C[N+](=O)[O-])NCCSCc1ccc(CN(C)C)o1 | Compound NOT metabolized
CCOc1nc2cccc(C(=O)O)c2n1Cc1ccc(-c2ccccc2-c2nnn[nH]2)cc1 | Compound NOT metabolized
C[C@@H](NCCCc1cccc(C(F)(F)F)c1)c1cccc2ccccc12 | Compound NOT metabolized
C[C@]12C=CC(=O)C=C1CC[C@@H]1[C@@H]2[C@@H](O)C[C@@]2(C)[C@H]1CC[C@]2(O)C(=O)CO | Compound NOT metabolized
C[C@@H]1C[C@H]2[C@@H]3CCC4=CC(=O)C=C[C@]4(C)[C@@]3(F)[C@@H](O)C[C@]2(C)[C@@]1(O)C(=O)CO | Compound NOT metabolized

Give Bacterial Biotransformation for each of the items listed below.
1. C=CC[C@@H]1/C=C(\C)C[C@H](C)C[C@H](OC)[C@H]2O[C@@](O)(C(=O)C(=O)N3CCCC[C@H]3C(=O)O[C@H](/C(C)=C/[C@@H]3CC[C@@H](O)[C@H](OC)C3)[C@H](C)[C@@H](O)CC1=O)[C@H](C)C[C@@H]2OC.O
2. COc1ccc([C@@H]2Sc3ccccc3N(CCN(C)C)C(=O)[C@@H]2OC(C)=O)cc1

Ans:
1: Compound NOT metabolized; 2: Compound NOT metabolized

Q: Name the reported Bacterial Biotransformation value associated with the molecule CN(Cc1cnc2nc(N)nc(N)c2n1)c1ccc(C(=O)N[C@@H](CCC(=O)O)C(=O)O)cc1 [METHOTREXATE]
Ans: Compound NOT metabolized
